- test.system: GLP-1 receptor (UniProt P43220 24-463, limits assumed)
- test: cell-based or functional assay
Numbered stars: 1 amine (or outer) side, 2 acyl side, 3 side chain; on linkers, the order of the positions; unused ones are H or OH. Square brackets hold non-standard residues; d marks the D form. Side chains are listed from the residue outwards. Ends that are not written are not given here. * marks the point of attachment. γGlu = O=C(O)[C@H](CCC(=O)[*:2])N[*:1]; Desaminohistidyl = O=C(CCc1c[nH]cn1)*; Palmitoyl = CCCCCCCCCCCCCCCC(=O)*; thioAla = not defined here
Recorded EC50 at GLP-1 Receptor (cAMP luciferase reporter, HEK293) by entry
Provide only the numeric value, understood in pM.

# binder, quantity.unit, readout.value
measured = [
    ("[Desaminohistidyl]GQGTFTSDK([γGlu-Palmitoyl])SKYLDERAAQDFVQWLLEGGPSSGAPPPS-NH2 [peptide of SEQ ID NO: 31]", "pM", 3),
]

The value of EC50 at GLP-1 Receptor (cAMP luciferase reporter, HEK293) measured for the binder [thioAla]PQGTFTSDK([γGlu-Palmitoyl])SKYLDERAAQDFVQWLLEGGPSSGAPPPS-NH2 (reading uncertain) [peptide of SEQ ID NO: 33] turned out to be 5

Reported EC50 at GLP-1 Receptor (cAMP luciferase reporter, HEK293) ( Ac-[dH]AQGTFTSDK([γGlu-Palmitoyl])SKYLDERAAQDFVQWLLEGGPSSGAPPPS-NH2 [peptide of SEQ ID NO: 13] ) = 4
